# system tested: T1, mTfR-1 K226A on Expi293 cells (mouse, UniProt Q62351 1-763)
# T1 construct: whole, on cells
# T1 sequence (Q62351 whole entry K226A): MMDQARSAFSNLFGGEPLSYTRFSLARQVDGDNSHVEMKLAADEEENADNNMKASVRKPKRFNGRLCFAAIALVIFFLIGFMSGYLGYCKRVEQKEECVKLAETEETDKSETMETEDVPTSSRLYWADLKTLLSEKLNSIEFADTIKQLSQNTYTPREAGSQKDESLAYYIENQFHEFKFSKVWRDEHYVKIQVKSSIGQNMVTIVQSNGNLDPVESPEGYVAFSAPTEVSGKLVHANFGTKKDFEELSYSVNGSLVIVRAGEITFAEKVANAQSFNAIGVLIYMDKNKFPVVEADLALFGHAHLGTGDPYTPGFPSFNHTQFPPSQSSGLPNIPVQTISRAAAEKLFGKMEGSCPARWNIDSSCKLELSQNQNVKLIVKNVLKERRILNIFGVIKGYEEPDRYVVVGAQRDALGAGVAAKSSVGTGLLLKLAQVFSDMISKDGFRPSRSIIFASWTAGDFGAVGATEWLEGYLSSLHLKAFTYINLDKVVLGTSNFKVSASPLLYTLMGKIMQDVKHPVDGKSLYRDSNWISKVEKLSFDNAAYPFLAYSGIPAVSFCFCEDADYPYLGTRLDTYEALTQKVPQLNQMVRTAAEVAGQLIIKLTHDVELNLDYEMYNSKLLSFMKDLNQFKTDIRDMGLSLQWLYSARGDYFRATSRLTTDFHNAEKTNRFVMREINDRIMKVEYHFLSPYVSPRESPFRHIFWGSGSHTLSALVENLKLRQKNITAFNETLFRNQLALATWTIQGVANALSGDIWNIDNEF
# method description: FACS, transfected Expi293 cells
The binders listed here are annotated with their % double-positive cells vs WT.
Record the value in %, omitting the unit from your answer.

Clone C variant 13 VNAR-hFc (Fc fusion, not shown: a dimerising Fc or GST, also called Clone C v13; Clone C var; 13) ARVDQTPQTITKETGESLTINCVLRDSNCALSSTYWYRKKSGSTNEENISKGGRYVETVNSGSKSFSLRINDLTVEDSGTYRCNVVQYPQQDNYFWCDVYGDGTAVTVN; 77

Assign % double-positive cells vs WT to the following record: Clone C VNAR-hFc fusion (Fc fusion, not shown: a dimerising Fc or GST, bivalent VNAR-Fc; also called Clone C-hFc) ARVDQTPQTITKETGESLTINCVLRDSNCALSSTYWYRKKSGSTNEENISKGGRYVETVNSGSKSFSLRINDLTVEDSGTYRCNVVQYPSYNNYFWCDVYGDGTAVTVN
157

Assign % double-positive cells vs WT to the following record: Clone C variant 18 VNAR-hFc (Fc fusion, not shown: a dimerising Fc or GST, also called Clone C v18; Clone C var; 18) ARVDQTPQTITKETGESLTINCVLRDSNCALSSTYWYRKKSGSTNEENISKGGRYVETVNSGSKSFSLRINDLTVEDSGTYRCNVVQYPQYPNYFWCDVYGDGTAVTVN
91

Assign % double-positive cells vs WT to the following record: 8D3 antibody (anti-mouse TfR-1 control; 8D3-hFc formatted antibody) (antibody, V domains shown) VH: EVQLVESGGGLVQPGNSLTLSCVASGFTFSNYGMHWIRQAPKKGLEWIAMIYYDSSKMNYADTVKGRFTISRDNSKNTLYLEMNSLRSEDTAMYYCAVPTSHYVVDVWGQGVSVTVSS VL: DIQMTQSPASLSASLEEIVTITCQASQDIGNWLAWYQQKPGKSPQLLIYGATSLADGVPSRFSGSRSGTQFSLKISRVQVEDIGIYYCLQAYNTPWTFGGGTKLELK
111
